Catalogue of molecules with associated GI50
# System: HCT-116
# Test Summary: NCI tumour cell line growth inhibition, 48 h
Activity calls are given as the source filed them. No stated cut-off is given here; in the data, active = GI50 up to about 1.1 µM and inactive = higher.

For HCT-116, provide GI50 of CCCCCCCC(CC(=O)NC(CO)C(=O)NC(CO)CC(C)C)OC(=O)CC(CCCCCCC)OC(=O)CC(CCCCCCC)OC1OC(C)C(O)C(OC2OC(C)C(O)C(O)C2O)C1O (centres undefined) please.
7.53 µM (inactive)

And c1cc(-c2sc(-c3ccncc3)c(-c3ccncc3)c2-c2ccncc2)ccn1 ?
12.9 µM (inactive)

And Cc1ccc([N+](=O)[O-])c2c(NCCNC(=O)c3cc(C(=O)NCCNc4ccnc5c(C)ccc([N+](=O)[O-])c45)n(C)n3)ccnc12 ?
> 100 µM (inactive)

And CSc1nc2c(c(N3CCOCC3)n1)C(O)n1c(nc3ccccc31)S2 (centres undefined) ?
> 100 µM (inactive)

---

# Tested on: M14
# Test Summary: NCI tumour cell line growth inhibition, 48 h
Activity calls are given as the source filed them. Rule as the data show it: active = GI50 up to about 1.1 µM and inactive = higher.
Catalogue of compounds with associated GI50

Check out these entries, answers already filled in.
Compound	Recorded Result
Cc1nc(=O)[nH]c(NCCNCCO)c1C(=O)Nc1cccc2cc3ccccc3cc12	> 100 µM (inactive)
Nc1nc(SCc2ccccc2Cl)cc(C(=O)O)n1	> 100 µM (inactive)
O=[N+]([O-])c1ccc(C[P+]2(c3ccccc3)CCCCC2)cc1.[O-][Cl+3]([O-])([O-])[O-]	> 100 µM (inactive)
Nc1cccc(S(=O)(=O)NCC(=O)O)c1	> 100 µM (inactive)
CN(C)CCCOCCn1c2c(c3ccccc31)CCCC2	15.7 µM (inactive)

For M14, provide GI50 of CCOC(=O)C(=O)Nc1cccc(Cl)c1C please.
> 100 µM (inactive)

And Cc1ccc(NC(=O)CC/C(CC(=O)c2ccc(Cl)cc2)=N\NC(=O)C(=O)NN)cc1C ?
> 100 µM (inactive)

And NC(=O)C(Nc1ccc(Cl)cc1)c1cc2cc(Br)ccc2nc1Cl (stereo unspecified) ?
> 50 µM (inactive)

And CSC1=N[C@H](c2ccccc2)CS1 ?
> 100 µM (inactive)

And CCOC(=O)C1=CC(C)(C(=O)OCC)Nc2c(nc(SC)[nH]c2=O)N1 (stereo unspecified) ?
> 10 µM (inactive)

And CC1CC[C@@]2(OC1)O[C@H]1C[C@H]3[C@@H]4CC[C@H]5C[C@@H](OC6OC(CO)C(OC7OC(CO)C(OC8OC(CO)C(O)C(OC9OC(C)C(OC%10OC(C)C(O)C(O)C%10O)C(O)C9O)C8OC8OCC(O)C(O)C8O)C(O)C7O)C(O)C6O)CC[C@]5(C)[C@H]4CC(=O)[C@]3(C)[C@H]1[C@@H]2C (stereo partly specified) ?
20.8 µM (inactive)

---

Catalogue of molecules with associated GI50
# Tested on: SNB-19
# Test Summary: NCI tumour cell line growth inhibition, 48 h
Calls of active or inactive are those of the source. No stated cut-off is given here; in the data, active = GI50 up to about 1.1 µM and inactive = higher.

Molecule	GI50
CCOC(=O)CSc1nnc2cc(CN3CCCC3)c(-c3ccc(Cl)cc3)nn12	> 100 µM (inactive)
c1ccc2c3c(ccc2c1)-c1[nH]ncc1CCO3	47.1 µM (inactive)
CCCCCCCCCCCCCCCc1nnc(SCC(=O)O)[nH]1	49.7 µM (inactive)
CC[C@H](C)c1occ2c(O)c(C(=O)O)c(=O)cc-2c1C	31.7 µM (inactive)
O=C1c2ccccc2C(=O)N1NC1=NCCN1	> 100 µM (inactive)
c1cc(-c2sc(-c3ccncc3)c(-c3ccncc3)c2-c2ccncc2)ccn1	18.4 µM (inactive)
Cc1ccccc1S(=O)(=O)Nn1cnc2ccc(S(=O)(=O)Nc3ccc(Cl)cc3)cc2c1=O	> 100 µM (inactive)
C/C(=N\O)c1ccc(OCc2cc(C(F)(F)F)cc(C(F)(F)F)c2)cc1	64.1 µM (inactive)
CN1CC=C(C#CC(C)(C)O)CC1	> 37.5 µM (inactive)
O=[N+]([O-])c1ccc(/C=N/Nc2nc3ccccc3[nH]2)o1	26.5 µM (inactive)

Param item = COc1cc(/C=C\c2nnc(/C=C\c3ccc(O)c(OC)c3)s2)ccc1O ; retrieve measured GI50.
4.58 µM (inactive)

And NCCCC(N)C(=O)O (configuration not stated) ?
> 100 µM (inactive)
